molecular target: JAK2 (Homo sapiens, UniProt O60674)
Sequence (O60674 whole entry, species assumed): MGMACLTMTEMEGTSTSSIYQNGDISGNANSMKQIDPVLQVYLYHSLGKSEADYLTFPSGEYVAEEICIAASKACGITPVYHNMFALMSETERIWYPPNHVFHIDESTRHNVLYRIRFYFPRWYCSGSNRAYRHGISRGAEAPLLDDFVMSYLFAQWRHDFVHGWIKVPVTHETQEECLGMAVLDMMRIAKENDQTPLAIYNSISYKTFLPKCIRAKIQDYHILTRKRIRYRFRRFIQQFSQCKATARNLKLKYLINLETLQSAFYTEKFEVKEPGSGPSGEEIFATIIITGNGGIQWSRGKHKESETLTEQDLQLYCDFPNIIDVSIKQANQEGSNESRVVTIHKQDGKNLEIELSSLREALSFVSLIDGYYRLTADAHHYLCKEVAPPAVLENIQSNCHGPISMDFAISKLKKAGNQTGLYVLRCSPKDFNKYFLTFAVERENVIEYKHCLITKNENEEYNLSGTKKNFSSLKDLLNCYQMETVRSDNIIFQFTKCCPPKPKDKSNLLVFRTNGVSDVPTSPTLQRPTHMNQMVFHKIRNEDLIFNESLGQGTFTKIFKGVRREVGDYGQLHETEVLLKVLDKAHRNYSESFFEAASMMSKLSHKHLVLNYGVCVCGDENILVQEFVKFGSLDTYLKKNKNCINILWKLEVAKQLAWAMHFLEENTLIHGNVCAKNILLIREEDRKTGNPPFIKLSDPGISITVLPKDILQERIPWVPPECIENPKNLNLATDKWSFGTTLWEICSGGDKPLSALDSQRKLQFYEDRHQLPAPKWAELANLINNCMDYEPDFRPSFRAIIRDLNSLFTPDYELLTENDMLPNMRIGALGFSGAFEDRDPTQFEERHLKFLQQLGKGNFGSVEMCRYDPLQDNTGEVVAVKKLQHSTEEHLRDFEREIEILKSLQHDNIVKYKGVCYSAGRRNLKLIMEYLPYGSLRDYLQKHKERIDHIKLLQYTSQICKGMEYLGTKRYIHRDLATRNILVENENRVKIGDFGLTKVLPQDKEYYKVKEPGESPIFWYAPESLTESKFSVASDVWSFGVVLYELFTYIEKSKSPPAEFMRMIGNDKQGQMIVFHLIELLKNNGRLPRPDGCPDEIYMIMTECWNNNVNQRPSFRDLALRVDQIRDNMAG
Quick reference for IC50 among some molecules

Sample records with IC50:
Cn1cc(Nc2nc(-c3cnn(C4(CC#N)COC4)c3)c3ccsc3n2)cn1 [Compound T-42]	50 to 500 nM
CCS(=O)(=O)N1CC(CC#N)(n2cc(-c3nc(Nc4ccncc4)nc4ccsc34)cn2)C1 [Compound T-21]	< 50 nM
N#CCC1(n2cc(-c3nc(Nc4cnn(C5CC5)c4)nc4ccsc34)cn2)CC1 [Compound T-76]	< 50 nM

Prompt line: Missing value: IC50, JAK2 (Homo sapiens, UniProt O60674), entry C[C@@H](O)Cn1cc(Nc2nc(-c3cnn(C4(CC#N)CN(S(C)(=O)=O)C4)c3)c3sccc3n2)cn1 [Compound T-86] . Fill in?
Response line: < 50 nM

Prompt line: Report IC50 for CCS(=O)(=O)N1CC(CC#N)(n2cc(-c3nc(NC4CCOCC4)nc4ccsc34)cn2)C1 [Compound T-06] tested on JAK2 (Homo sapiens, UniProt O60674).
Response line: > 1000 nM

Prompt line: Notebook entry, JAK2 (Homo sapiens, UniProt O60674) assay: IC50 of Cn1cc(Nc2nc(-c3cnn(C4(CC#N)COC4)c3)c3sccc3n2)cn1 [Compound T-43] = ?
Response line: < 50 nM

Prompt line: Query IC50 on JAK2 (Homo sapiens, UniProt O60674) for CCS(=O)(=O)N1CC(CC#N)(n2cc(-c3nc(Nc4ccc(S(C)(=O)=O)cc4)nc4ccsc34)cn2)C1 [Compound T-12]
Response line: < 50 nM

Prompt line: Form field: IC50 recorded for Cn1cc(Nc2nc(-c3cnn(C4(CC#N)CN(S(C)(=O)=O)C4)c3)c3sccc3n2)cn1 [Compound T-74] with JAK2 (Homo sapiens, UniProt O60674) (enter value)
Response line: < 50 nM

Prompt line: API: value(readout=IC50, system=JAK2 (Homo sapiens, UniProt O60674)) for record N#CCNC(=O)c1ccc(-c2nc(Nc3ccccc3)nc3ccsc23)cc1 [Compound T-16]
Response line: > 1000 nM

Prompt line: For JAK2 (Homo sapiens, UniProt O60674), provide IC50 of C[C@H](O)Cn1cc(Nc2nc(-c3cnn(C4(CC#N)COC4)c3)c3sccc3n2)cn1 [Compound T-81] please.
Response line: < 50 nM

Prompt line: What reported IC50 corresponds to CCS(=O)(=O)N1CC(CC#N)(n2cc(-c3nc(Nc4cc(C)[nH]n4)nc4ccsc34)cn2)C1 [Compound T-72] on JAK2 (Homo sapiens, UniProt O60674)?
Response line: < 50 nM

Prompt line: Report IC50 for CCS(=O)(=O)N1CC(CC#N)(n2cc(-c3nc(NC4CCCCC4)nc4ccsc34)cn2)C1 [Compound T-27] tested on JAK2 (Homo sapiens, UniProt O60674).
Response line: > 1000 nM

Prompt line: Value wanted: IC50 (JAK2 (Homo sapiens, UniProt O60674)) of entry CC(CC#N)n1cc(-c2nc(Nc3ccccc3)nc3ccsc23)cn1 (stereo not shown) [Compound T-02]
Response line: 50 to 500 nM

Prompt line: Param readout= IC50; system= JAK2 (Homo sapiens, UniProt O60674); entry= N#CCC(C1CCCC1)n1cc(-c2nc(Nc3cncnc3)nc3ccsc23)cn1 (stereo not shown) [Compound T-04] ; returns value.
Response line: < 50 nM

Prompt line: Form field - read-out: IC50; system: JAK2 (Homo sapiens, UniProt O60674); submitted item: C[C@@H](CO)n1cc(Nc2nc(-c3cnn(C4(CC#N)COC4)c3)c3sccc3n2)cn1 [Compound T-83]
Response line: < 50 nM

Prompt line: Give recorded IC50 with JAK2 (Homo sapiens, UniProt O60674) for the following molecule: CCS(=O)(=O)N1CC(CC#N)(n2cc(-c3nc(Nc4ccccc4)nc4ccoc34)cn2)C1 [Compound T-30]
Response line: < 50 nM

Source: patent US9745320B2
